Collected morphology score values appear next to each entry.
Tested on: Vero E6 infected with SARS-CoV-2
PROTOCOL: morphology score (similarity to uninfected cells); higher = more like uninfected cells
TEST SETTINGS: 24 h

Please review the following examples before continuing.
INSERT INTO results (compound, result) VALUES
  ('CC[C@@H]([C@H](C)O)n1ncn(-c2ccc(N3CCN(c4ccc(OC[C@@H]5CO[C@@](Cn6cncn6)(c6ccc(F)cc6F)C5)cc4)CC3)cc2)c1=O [posaconazole] (0.833333 µM)', 0.204),
  ('O=C(c1ccc(C(=O)N2CCC(N3CCCC3)CC2)c(Nc2ccccc2)c1)N1CCC(N2CCCC2)CC1 (10 µM)', -0.0106),
  ('CCOC(=O)N1CSC[C@H]1C(=O)O [telmesteine] (10 µM)', 0.00511);

Query: GET /values?readout=morphology score&item= O=C(O)c1cc(O)c2c3nc4ccccc4oc-3cc(=O)c2n1 [pirenoxine] (10 µM)
Response: 0.0951

Reference source for all entries: the supplement of paper PMC13380429
